Target: T1, hROR2-Fc (human ROR2 Fc fusion protein) (human, UniProt Q01974 34-403, limits assumed)
T1 construct: Given both as hROR2-Fc and as Fc-hROR2, so the order of the two parts is not certain; also called Fc-hROR2; not shown: human Fc part (captured by a mouse anti-human IgG CH2 / Fcγ mAb)
Test: SPR (Biacore X100), Fc-hROR2 captured on CM5 chip via mouse anti-human Fcγ mAb, Fab as analyte, 1:1 binding model
quantityName: koff
State the value, then name its unit.

binder: X2.23 (Fab, V domains shown, one of the top 12 chimeric rabbit/human anti-human ROR2 Fabs selected from the focused HCDR3 mutagenesis library) VH: QSVKESEGGLFKPTDTLTLTCTVSGFSLSSYGVTWVRQAPGSGLEWIGYINTAGNTYYASWAKSRSTITRNTNENTVTLKMTSLTAADTATYFCARDYTSLNIWGPGTLVTVSS VL: DPMLTQTPSSTSTAVGDTVTIKCQASQSISSDLSWYQQKPGQRPKLLIYQASTLASGVPSRFKGSGYGTEYTLTISGVQREDAAIYYCLGGYADASYRTAFGGGTKLEIK
koff: 4.7e-05 s⁻¹
//
binder: X4.12 (Fab, V domains shown, one of the top 12 chimeric rabbit/human anti-human ROR2 Fabs selected from the focused HCDR3 mutagenesis library) VH: QSVKESEGGLFKPTDTLTLTCTVSGFSLSSYGVTWVRQAPGSGLEWIGYINTAGNTYYASWAKSRSTITRNTNENTVTLKMTSLTAADTATYFCARDYMMNSLNIWGPGTLVTVSS VL: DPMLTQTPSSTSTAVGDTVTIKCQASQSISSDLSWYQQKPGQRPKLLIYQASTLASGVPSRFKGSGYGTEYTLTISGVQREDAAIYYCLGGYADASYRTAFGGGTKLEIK
koff: 0.00015 s⁻¹

Please look at the following binder next.
Which value of koff has been reported for X4.9 (Fab, V domains shown, one of the top 12 chimeric rabbit/human anti-human ROR2 Fabs selected from the focused HCDR3 mutagenesis library) VH: QSVKESEGGLFKPTDTLTLTCTVSGFSLSSYGVTWVRQAPGSGLEWIGYINTAGNTYYASWAKSRSTITRNTNENTVTLKMTSLTAADTATYFCARDNGSTSLNIWGPGTLVTVSS VL: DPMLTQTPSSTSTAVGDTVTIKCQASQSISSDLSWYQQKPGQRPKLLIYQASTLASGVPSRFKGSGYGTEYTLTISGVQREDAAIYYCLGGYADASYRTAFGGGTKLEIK in the records?
0.00034 s⁻¹
